Could you please report measured IC50 for the items listed next?
# Species on record: Rattus norvegicus
# ASSAY NOTES: Inhibition of Adenylyl cyclase activity in rat cortical membranes
# Assay type: functional
# output: numeric value plus its unit

Field: example entries. Status: answers known.
{"COMPOUND STRING": "C[C@H](Cc1ccccc1)Nc1ncnc2c1ncn2[C@]1(C)O[C@H](CO)[C@@H](O)[C@H]1O", "PARAMETER": "IC50", "OBSERVED MEASUREMENT": "65 nM"}
{"COMPOUND STRING": "C[C@@]1(n2cnc3c(N)ncnc32)O[C@H](CO)[C@@H](O)[C@H]1O", "PARAMETER": "IC50", "OBSERVED MEASUREMENT": "3440 nM"}
{"COMPOUND STRING": "C[C@@]1(n2cnc3c(NC4CCCC4)ncnc32)O[C@H](CO)[C@@H](O)[C@H]1O", "PARAMETER": "IC50", "OBSERVED MEASUREMENT": "357 nM"}

For the next question, use this compound.
input: Give IC50 for C[C@@H](Cc1ccccc1)Nc1ncnc2c1ncn2[C@]1(C)O[C@H](CO)[C@@H](O)[C@H]1O
output: 140 nM

###

# Species: Rattus norvegicus
# ASSAY NOTES: % maximal inhibition of Adenylyl cyclase activity in rat cortical membranes at 100 uM
# Type: functional
PARAMETER: Max inhibition (%)
Numbers only, in %.

Sample records with Max inhibition:
{"COMPOUND STRING": "C[C@H](Cc1ccccc1)Nc1ncnc2c1ncn2[C@]1(C)O[C@H](CO)[C@@H](O)[C@H]1O", "Max inhibition [%]": 23.7}
{"COMPOUND STRING": "C[C@@]1(n2cnc3c(NC4CCCC4)ncnc32)O[C@H](CO)[C@@H](O)[C@H]1O", "Max inhibition [%]": 17.4}
{"COMPOUND STRING": "C[C@@H](Cc1ccccc1)Nc1ncnc2c1ncn2[C@]1(C)O[C@H](CO)[C@@H](O)[C@H]1O", "Max inhibition [%]": 29}

Okay, now this compound:
input: Return Max inhibition (reported value) for this compound: C[C@@]1(n2cnc3c(N)ncnc32)O[C@H](CO)[C@@H](O)[C@H]1O
output: 22

###

# SUBJECT OF TEST: UniProtKB P30543
# Sequence (P30543 whole entry): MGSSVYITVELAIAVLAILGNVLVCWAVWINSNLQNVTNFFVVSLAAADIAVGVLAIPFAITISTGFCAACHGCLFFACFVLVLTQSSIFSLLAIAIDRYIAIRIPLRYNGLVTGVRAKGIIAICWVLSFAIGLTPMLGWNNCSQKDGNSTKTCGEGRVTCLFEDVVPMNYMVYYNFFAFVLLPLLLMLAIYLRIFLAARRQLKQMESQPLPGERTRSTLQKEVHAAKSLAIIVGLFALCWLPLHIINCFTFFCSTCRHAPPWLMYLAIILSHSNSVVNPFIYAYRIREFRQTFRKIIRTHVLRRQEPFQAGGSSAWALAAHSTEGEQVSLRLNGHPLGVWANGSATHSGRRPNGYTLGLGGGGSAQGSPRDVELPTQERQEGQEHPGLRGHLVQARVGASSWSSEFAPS
PARAMETER: Ki (nM)
Answers are plain numbers, in nM.

input: Report measured Ki; entry is OC[C@H]1O[C@@H](n2cnc3c(NC4CCCC4)ncnc32)[C@H](O)[C@@H]1O
output: 380

###

Assign Selectivity to each entry below.
# SUBJECT OF TEST: Adenosine receptors; A1 & A3 (Rattus norvegicus) (UniProt P25099+P28647)
# ASSAY NOTES: Selectivity for Adenosine A3 over Adenosine A1 receptor
# Type: protein assay
Answers are plain numbers.

{"COMPOUND": "C[C@@]1(O)[C@H](O)[C@@H](CO)O[C@H]1n1cnc2c(NC3CCCC3)ncnc21", "Selectivity": 22.1}

// input: 3 compounds below; output: Selectivity for each
1. C[C@H](Cc1ccccc1)Nc1ncnc2c1ncn2[C@@H]1O[C@H](CO)[C@@H](O)[C@@]1(C)O
2. C[C@@]1(n2cnc3c(NC4CCCC4)ncnc32)O[C@H](CO)[C@@H](O)[C@H]1O
3. C[C@@H](Cc1ccccc1)Nc1ncnc2c1ncn2C1O[C@H](CO)[C@@H](O)[C@@]1(C)O (stereo partly specified)

output:
[230, 52, 200]

Origin of the recorded values: ChEMBL document CHEMBL1135881
